# STUDY_SYSTEM: SPAK (Homo sapiens, UniProt Q9UEW8)
# TEST_METHOD_NOTES: Cellular inhibition of SPAK phosphorylation (pSer373)
# Assay type: cell-based
# APPLIED_CONDITIONS: Isotonic conditions; 50% inhibition of phosphorylation; n = 3; — = no inhibition; read-out: SPAK pSer373 (μM) Iso
EXPERIMENTAL_READOUT: IC50 (µM)
Kindly provide the numeric value in µM only, without the unit symbol.

According to the records, this compound Cc1cc(C(C#N)c2ccc(Cl)cc2)c(Cl)cc1NC(=O)c1cc(F)ccc1O (stereo not drawn) [1g(ZT-06-055-01)] displays IC50 of 3

According to the records, this compound Cc1cc(C(C#N)c2ccc(Cl)cc2)c(Cl)cc1NC(=O)c1cc(Cl)cc(Cl)c1O (stereo not drawn) [1f] displays IC50 of 3

According to the records, this compound Cc1cc(C(C#N)c2ccc(Cl)cc2)c(Cl)cc1NC(=O)c1ccccc1N (stereo not drawn) [1d(ZT-06-022-01)] displays IC50 of 3

The measured values listed here are drawn from patent US11925611B2.
